# PROTOCOL TEXT: Measurement of logP values by HPLC on reversed phase columns (EEC directive 79/831 Annex V.A8)
# Type: physicochemical
# APPLIED CONDITIONS: method [b]: LC-MS at pH 2.7 with 0.1% formic acid in water and acetonitrile, linear gradient 10% to 95% acetonitrile
PROPERTY NAME: logp

{"columns": ["COMPOUND", "PROPERTY NAME", "VALUE REPORTED"],
 "data": [
  ["C#CCCOC(=O)Nc1nc(CON=C(c2ccccc2)c2ccnn2C)cs1 [Example 61]", "logp", "3.11^[b]"],
  ["CCCCOC(=O)Nc1nc(CON=C(c2ccccc2)c2ccnn2C)cs1 [Example 58]", "logp", "3.76^[b]"],
  ["CCCCCOC(=O)Nc1nc(CON=C(c2ccccc2)c2ccnn2C)cs1 [Example 60]", "logp", "4.16^[b]"],
  ["C=CCCOC(=O)Nc1cccc(CON=C(c2ccccc2)c2nsnc2C)n1 [Example 24]", "logp", "4.65^[b]"],
  ["Cn1nccc1C(=NOCc1csc(NC(=O)OC(C)(C)C)n1)c1ccccc1 [Example 63]", "logp", "3.69^[b]"],
  ["CCCCCNc1cccc(CON=C(c2ccccc2)c2nsnc2C)n1 [Example 38]", "logp", "2.7^[b]"],
  ["CCCCCCOC(=O)Nc1cccc(CON=C(c2ccccc2)c2nsnc2C)n1 [Example 23]", "logp", "5.99^[b]"],
  ["CCCCC#Cc1nc(CON=C(c2ccccc2)c2nsnc2C(F)(F)F)cs1 [Example 40]", "logp", "6.37^[b]"]
]}

###

# PROTOCOL TEXT: Measurement of logP values by HPLC on reversed phase columns (EEC directive 79/831 Annex V.A8)
# Format: physicochemical
# APPLIED CONDITIONS: method [b]: LC-MS at pH 2.7 with 0.1% formic acid in water and acetonitrile, linear gradient 10% to 95% acetonitrile
compounds and their reported logp

{"columns": ["SMILES NOTATION", "logp"],
 "data": [
  ["Cn1nccc1C(=NOCc1csc(Br)n1)c1ccccc1", "3.39^[b]"],
  ["Cn1nccc1C(=NOCc1csc(N)n1)c1ccccc1", "1.5^[b]"],
  ["Cn1nccc1C(=NOCc1csc(NC(=O)CCc2ccccc2)n1)c1ccccc1", "3.69^[b]"],
  ["CCCCC#Cc1nc(CON=C(c2cccc(F)c2)c2nonc2C)cs1", "5.59^[b]"],
  ["CCCCCCNc1cccc(CON=C(c2ccccc2)c2nsnc2C(F)(F)F)n1", "3.44^[b]"],
  ["CCCCC#Cc1nc(CON=C(c2ccccc2F)c2nonc2C)cs1", "5.39^[b]"],
  ["Cc1nsnc1C(=NOCc1cccc(NCCC2CCCCC2)n1)c1ccccc1", "3.46^[b]"],
  ["C=CCCCCNc1cccc(CON=C(c2ccccc2)c2nsnc2C)n1", "2.78^[b]"],
  ["Cn1nccc1C(=NOCc1csc(C#CC2CC2)n1)c1ccccc1", "3.87^[b]"]
]}

###

# PROTOCOL TEXT: Measurement of logP values by HPLC on reversed phase columns (EEC directive 79/831 Annex V.A8)
# Format: physicochemical
# APPLIED CONDITIONS: reversed phase HPLC column; HCOOH (formic acid) method; read-out: log P(HCOOH)

{"columns": ["SMILES NOTATION", "chromatographic logP"],
 "data": [
  ["Cc1nsnc1/C(=N\\OCc1cccc(N2C(=O)c3ccccc3C2=O)n1)c1ccccc1", 3.99],
  ["Cc1nsnc1C(=NOCc1cccc(NC(=O)OC(C)(C)C)n1)c1ccccc1", 4.97],
  ["CC#CCOC(=O)Nc1cccc(CON=C(c2ccccc2)c2nsnc2C)n1", 4.28],
  ["Cc1nsnc1/C(=N\\OCc1cccc(N)n1)c1ccccc1", 1.54],
  ["O=C1c2ccccc2C(=O)N1OCc1csc(Br)n1", 2.39],
  ["CCCCCCN(C(=O)OC(C)(C)C)c1cccc(CON)n1", 3.42],
  ["CCCCCCN(C(=O)OC(C)(C)C)c1cccc(CON2C(=O)c3ccccc3C2=O)n1", 5.48],
  ["CCCCCCN(C(=O)OC(C)(C)C)c1cccc(CO)n1", 3.94],
  ["Nc1nc(CON2C(=O)c3ccccc3C2=O)cs1", 0.74],
  ["CCCCCCNc1cccc(CON=C(c2ccccc2)c2nsnc2C)n1", 3.11],
  ["Cc1nsnc1C(=NO)c1ccccc1", 2.26],
  ["CCCCC#Cc1nc(CON2C(=O)c3ccccc3C2=O)cs1", 3.78],
  ["CCCCC#Cc1nc(CON=C(c2cccc(Cl)c2)c2nnsc2C)cs1", 5.68],
  ["CCCCCCNc1cccc(CON=C(c2cccc(F)c2)c2nnsc2C)n1", 3.06],
  ["CCCCC#Cc1nc(CON)cs1", 1.76]
]}
